Data credit: PubChem BioAssay AID1986

experiment: inhibitors of HIV fusion peptide binding, primary screen, biochemical, uHTS, fluorescence dequenching (AID 1986); details: cell-free peptide binding, 30 min, at 20 µM
The whole screen tested about 290,000 compounds, of which about 890 (0.31%) were called active. Cut-off read from the data, not from the text of the source: active = inhibition mostly above about 52% (no sharp cut-off); inactive = mostly below about 76%. Only a selection was taken, and actives are over-represented in it overall.
Labels: active, inactive

>  <compound>
Cc1c(NC(=O)/C(=C/c2cccs2)c2cccs2)c(=O)n(-c2ccccc2)n1C

>  <category>
inactive

$$$$
>  <compound>
CCOc1ccc2c(c1)c1nnc(SCC(=O)NC3CC3)nc1n2C

>  <category>
inactive

$$$$
>  <compound>
CC1CCN(S(=O)(=O)c2ccc(C(=O)OC(C)C(=O)NC3CCCCC3C)cc2)CC1 (stereo unspecified)

>  <category>
inactive

$$$$
>  <compound>
Cc1c(NC(=O)c2cccs2)c(=O)n(-c2ccccc2)n1C

>  <category>
inactive

$$$$
>  <compound>
CCn1c(SCC(=O)NC(C)C)nnc1-c1cccs1

>  <category>
inactive

$$$$
>  <compound>
CC(C)CC(C(=O)O)N1C(=O)C2C3c4ccccc4C(c4ccccc43)[C@@H]2C1=O (stereo partly specified)

>  <category>
inactive

$$$$
>  <compound>
CCOc1cc(CNCCCN2CCOCC2)cc(Br)c1OCc1ccccc1Cl

>  <category>
inactive

$$$$
>  <compound>
Cc1ccc(-c2cc3c(n2-c2ccc(C(=O)O)cc2)CCCC3=O)cc1

>  <category>
inactive

$$$$
>  <compound>
O=C1OC(c2ccc(F)cc2)=C/C1=C\c1ccc([N+](=O)[O-])o1

>  <category>
active

$$$$
>  <compound>
CCOc1ccc(C(=O)Nc2ncccc2Cl)cc1

>  <category>
inactive

$$$$
>  <compound>
O=C(O)c1ccc(COc2ccccc2/C=C2/NC(=O)N(c3cccc(Cl)c3)C2=O)cc1

>  <category>
active

$$$$
>  <compound>
N/C(Cc1cccc2ccccc12)=N\OC(=O)COc1ccccc1

>  <category>
inactive

$$$$
>  <compound>
O=C(O)c1ccc(COc2ccccc2/C=C2\NC(=O)N(Cc3ccccc3)C2=O)cc1

>  <category>
inactive

$$$$
>  <compound>
COc1cc(/C=C2\SC(=O)NC2=O)ccc1Oc1ccc([N+](=O)[O-])cn1

>  <category>
inactive

$$$$
>  <compound>
O=C(O)CN1C(=O)/C(=C\c2ccccc2OCc2ccc(F)cc2)SC1=S

>  <category>
inactive

$$$$
>  <compound>
O=[N+]([O-])c1ccc(/C=N\NS(=O)(=O)c2ccc(F)cc2)o1

>  <category>
inactive

$$$$
>  <compound>
COc1ccccc1NC(=O)C(C)OC(=O)C1CC(=O)N(c2ccc3c(c2)OCCO3)C1 (stereo unspecified)

>  <category>
inactive

$$$$
>  <compound>
Cc1cccc(CN2CCN(c3nc4nonc4nc3NC3CC3)CC2)c1

>  <category>
inactive

$$$$
>  <compound>
COc1cc(/C=C2\SC(=O)NC2=O)ccc1Oc1ccc([N+](=O)[O-])cc1[N+](=O)[O-]

>  <category>
active

$$$$
>  <compound>
O=C(CN1C(=O)NC2(CCCC2)C1=O)Nc1cccc(Cl)c1Cl

>  <category>
inactive

$$$$
>  <compound>
COc1cc(/C=C2/SC(=O)NC2=O)ccc1Oc1ccc([N+](=O)[O-])cc1[N+](=O)[O-]

>  <category>
inactive

$$$$

====

Quick reference for inhibition among some compounds
experiment: inhibitors of HIV fusion peptide binding, primary screen, biochemical, uHTS, fluorescence dequenching (AID 1986); details: cell-free peptide binding, 30 min, at 20 µM, active compounds read high
In all, about 290,000 compounds went through this assay and about 890 (0.31%) were called active. The entries come from a sample that favours actives as a whole.

>  <compound>
N#C/C=C(/N)N1CCN(c2ccc(Cl)c(Cl)c2)CC1

>  <result.unit>
%

>  <inhibition>
-2.3

$$$$
>  <compound>
COc1ccccc1N1C(=O)C2C(C(=O)c3ccccc3)=NN(c3ccccc3OC)C2C1=O (configuration not stated)

>  <result.unit>
%

>  <inhibition>
59.5

$$$$
>  <compound>
Cc1cccn2c(=O)c(C=Nc3ccccc3)c(NCCO)nc12

>  <result.unit>
%

>  <inhibition>
0.3

$$$$
>  <compound>
Cc1cc(C)cc(NC(=O)c2cccn2-c2ncc(C(F)(F)F)cc2Cl)c1

>  <result.unit>
%

>  <inhibition>
2.6

$$$$
>  <compound>
O=C(Nc1ccc(N2CCOCC2)cc1)C1(S(=O)(=O)c2ccccc2)CC1

>  <result.unit>
%

>  <inhibition>
-1.1

$$$$
>  <compound>
C=CCn1c(SC(C)C(=O)NCc2ccc3c(c2)OCO3)nnc1C1CCCCC1 (configuration not stated)

>  <result.unit>
%

>  <inhibition>
-0.3

$$$$
>  <compound>
CCOc1cccc(C(=O)Nc2cccc(C(C)=O)c2)c1

>  <result.unit>
%

>  <inhibition>
-0.2

$$$$
>  <compound>
COc1cc2nc(CN3CCN(C(c4ccccc4)c4ccccc4)CC3)[nH]c(=O)c2cc1OC

>  <result.unit>
%

>  <inhibition>
2.2

$$$$
>  <compound>
CC1=Nc2nc(N3CCCCC3)c(C#N)c3c4c(nc(c23)N1)N(c1ccc(C(C)C)cc1)C(=O)C4

>  <result.unit>
%

>  <inhibition>
63.9

$$$$
>  <compound>
COc1ccc(/C=N/NC(=O)c2cccc([N+](=O)[O-])c2)cc1OC(=O)c1ccc(C)cc1

>  <result.unit>
%

>  <inhibition>
-0.7

$$$$
>  <compound>
CCn1cc(C(=O)NCCc2ccccc2C)c(=O)c2ccc(C)nc21

>  <result.unit>
%

>  <inhibition>
-1.3

$$$$
>  <compound>
CC(C)P(=O)(Cc1cccc(C#N)c1)C(C)C

>  <result.unit>
%

>  <inhibition>
3.5

$$$$
>  <compound>
O=C(O)c1cccc(S(=O)(=O)N2CCOCC2)c1

>  <result.unit>
%

>  <inhibition>
-1

$$$$
>  <compound>
O=C(Nc1cccc(NC(=O)c2ccc([N+](=O)[O-])o2)c1)c1ccco1

>  <result.unit>
%

>  <inhibition>
0.6

$$$$
>  <compound>
Cc1onc(-c2c(Cl)cccc2Cl)c1C(=O)Nc1nccs1

>  <result.unit>
%

>  <inhibition>
-1

$$$$
>  <compound>
CCOC(=O)c1ccc(NC(=S)NCC(O)c2ccccc2)cc1 (configuration not stated)

>  <result.unit>
%

>  <inhibition>
8.7

$$$$
>  <compound>
CN(C)C(=O)CSc1nnc(Cc2ccccc2)n1CC1CCCO1 (configuration not stated)

>  <result.unit>
%

>  <inhibition>
-1.3

$$$$
>  <compound>
Cn1c(=O)oc2cc(S(=O)(=O)N3CCCC(C(=O)N4CCc5ccccc5C4)C3)ccc21 (configuration not stated)

>  <result.unit>
%

>  <inhibition>
2.2

$$$$
>  <compound>
COC(=O)C1=NN(c2ccccc2)C2C(=O)N(c3ccccc3OC)C(=O)C12 (configuration not stated)

>  <result.unit>
%

>  <inhibition>
1.2

$$$$
>  <compound>
O=C(NCc1ccco1)c1ccc(Cl)nc1

>  <result.unit>
%

>  <inhibition>
-2

$$$$
>  <compound>
CCOC(=O)N1CCC(N2C(=O)c3ccccc3C2Nc2cc(C)cc(C)c2)CC1 (configuration not stated)

>  <result.unit>
%

>  <inhibition>
-0.9

$$$$
>  <compound>
Cc1cccn2c(=O)c3cc(C(=O)NCCCOC(C)C)sc3nc12

>  <result.unit>
%

>  <inhibition>
1

$$$$

====

experiment: inhibitors of HIV fusion peptide binding, primary screen, biochemical, uHTS, fluorescence dequenching (AID 1986); conditions: cell-free peptide binding, 30 min, at 20 µM
Among all 290,000 compounds or so, about 890 (0.31%) were called active. No stated cut-off is given here; in the data, active means inhibition mostly above about 52% (no sharp cut-off); inactive means mostly below about 76%. For the sample, actives were picked, then their nearest neighbours and some compounds at random.
Possible outcomes: yes (1) for active, no (0) for inactive

>  <sample.smiles>
CN1/C(=C\C=C2/SC(=S)N(CC(=O)O)C2=O)C(C)(C)c2ccccc21

>  <category>
no (0)

$$$$
>  <sample.smiles>
O=Cc1ccc(-c2nc3ccccc3s2)o1

>  <category>
no (0)

$$$$
>  <sample.smiles>
C=CCN1C(=O)/C(=C\C=C2\N(C)c3ccccc3C2(C)C)SC1=S

>  <category>
yes (1)

$$$$
>  <sample.smiles>
O=C(O)CCCN1C(=O)/C(=C\C(Cl)=C\c2ccccc2)SC1=S

>  <category>
no (0)

$$$$
>  <sample.smiles>
CCCCN1C(=O)/C(=C/C=C2\N(C)c3ccccc3C2(C)C)SC1=S

>  <category>
no (0)

$$$$
>  <sample.smiles>
COc1ccc2c3c(cccc13)OC2=O

>  <category>
no (0)

$$$$

====

assay: inhibitors of HIV fusion peptide binding, primary screen, biochemical, uHTS, fluorescence dequenching (AID 1986); settings: cell-free peptide binding, 30 min, at 20 µM, active compounds read high
Among all 290,000 compounds or so, about 890 (0.31%) were called active. This is one part of a sample in which actives are shown more often than they occur.
1 means recorded inhibition is 30% or above; -1 means it is below 30%.

>  <compound>
O=C(CCN1C(=O)/C(=C/c2ccco2)SC1=S)Nc1ccc(O)cc1C(=O)O

>  <category>
1

$$$$
>  <compound>
COc1ccc(-n2ncc(C(=O)NC3CC3)c2C2CCN(C(=O)OC(C)(C)C)CC2)cc1

>  <category>
-1

$$$$
>  <compound>
Cc1cc(N2C(=O)C(O)=C(C(=O)c3ccco3)C2c2ccc([N+](=O)[O-])cc2)no1 (stereo not given)

>  <category>
-1

$$$$
>  <compound>
O=C(CN1C(=O)/C(=C\c2cccs2)SC1=S)Nc1cccc(C(=O)O)c1

>  <category>
1

$$$$
>  <compound>
COc1ccc(NC(=O)CCCN2C(=O)/C(=C\c3ccco3)SC2=S)cc1

>  <category>
1

$$$$
